This section presents compounds with their documented Relative Binding force values.
Molecular target: HsRad52 protein (HsRad521-212) (Homo sapiens, UniProt P43351)
Construct: hexahistidine (N, cleaved yes); made in house; host or cells: E. coli JM109 (DE3), pET15-b
Sequence (P43351 1-212): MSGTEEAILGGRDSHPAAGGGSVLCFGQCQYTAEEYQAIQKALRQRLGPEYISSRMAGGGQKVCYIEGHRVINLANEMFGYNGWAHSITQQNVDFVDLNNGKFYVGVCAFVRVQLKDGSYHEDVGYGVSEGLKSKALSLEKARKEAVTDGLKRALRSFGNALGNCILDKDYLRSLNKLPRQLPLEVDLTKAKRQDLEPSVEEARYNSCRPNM
Assay: Screening for HsRad52-binding compounds by one-dimensional 1H-NMR
Conditions: calculated from signal intensity of the NMR spectrum; binding force of Compound A defined as 1
Method: Among the ligand candidate compounds obtained in Example 8, one candidate compound was in view of the binding free energy change (ΔG) obtained by AutoDock and solubility. The compound was dissolved in DMSO-d6 to be adjusted to 455.7 μM. […] One-dimensional ^1H-NMR of the individual samples was measured, to observe whether or not any change existed between prior to and after the addition of HsRad52 protein. […]
Keep the answer to the number alone.

Task item: Provide only the value of recorded Relative Binding force for CCCCc1ccc(-c2nc(NC(=O)C3C4CCC(O4)C3C(=O)O)sc2C)cc1 (stereo not shown)
Reply: 0.5

----------
This section presents compounds with their documented Relative Binding force values.
biological target: HsRad52 protein (HsRad521-212) (Homo sapiens); construct: hexahistidine (N, cleaved yes); made in house; host or cells: E. coli JM109 (DE3), pET15-b; assay: Screening for HsRad52-binding compounds by one-dimensional 1H-NMR; details: calculated from signal intensity of the NMR spectrum; binding force of Compound A defined as 1
Keep the answer to the number alone.

>  <compound>
CC1=C(C)CC(C(=O)Nc2nc(-c3ccc(C)cc3C)c(C)s2)C(C(=O)O)C1 (stereo not drawn)

>  <assay-system>
HsRad52 protein (HsRad521-212) (Homo sapiens)

>  <readout-name>
Relative Binding force

>  <measured-number>
0.2

$$$$

Task item: Provide only the value of recorded Relative Binding force for CCCc1ccc(-c2nc(NC(=O)C3CC(C)=C(C)CC3C(=O)O)sc2C)cc1 (stereo not drawn)
Reply: 0.5

Task item: Provide only the value of recorded Relative Binding force for CC1=C(C)CC(C(=O)Nc2nc(-c3ccc(C(C)C)cc3)c(C)s2)C(C(=O)O)C1 (stereo not drawn)
Reply: 0.5
